Recorded measurements of IC50, one per entry
- target-system: 5-hydroxytryptamine receptor 2A (Homo sapiens)
- Sequence (P28223 whole entry): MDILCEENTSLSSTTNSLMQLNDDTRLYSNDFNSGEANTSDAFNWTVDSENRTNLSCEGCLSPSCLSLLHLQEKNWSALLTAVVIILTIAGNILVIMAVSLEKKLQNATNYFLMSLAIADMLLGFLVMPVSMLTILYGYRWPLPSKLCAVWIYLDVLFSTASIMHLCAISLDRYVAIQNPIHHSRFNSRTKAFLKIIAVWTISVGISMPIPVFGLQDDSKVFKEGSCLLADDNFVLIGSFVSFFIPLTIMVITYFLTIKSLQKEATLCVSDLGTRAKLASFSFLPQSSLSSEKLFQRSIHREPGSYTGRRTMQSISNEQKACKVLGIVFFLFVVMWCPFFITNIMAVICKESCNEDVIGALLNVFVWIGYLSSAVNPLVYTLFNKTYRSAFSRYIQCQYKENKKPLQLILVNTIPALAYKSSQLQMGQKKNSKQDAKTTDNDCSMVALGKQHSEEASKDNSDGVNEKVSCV
- test-protocol: Antagonist activity at human 5HT2A receptor expressed in HEK293 cells assessed as inhibition of 5HT-induced intracellular Ca2+ mobilization incubated for 1 hr by Fluo-4 dye based fluorescence assay
- Format: functional, cell-based
- condition-info: read-out: IC50

Record excerpt, results attached:
>  <query-smiles>
COc1c(OCCOCCOCCOCCOCCOCCOc2ccc(C3CCN(c4ccn5c(CC6CC6)nnc5c4Cl)CC3)cc2)cccc1C(=O)C1CCN(CCc2ccc(F)cc2)CC1

>  <IC50>
270 nM

$$$$
>  <query-smiles>
COc1c(OCCOCCOCCOCCOCCOCCOCCOCCOCCOCCOc2ccc(C3CCN(c4ccn5c(CC6CC6)nnc5c4Cl)CC3)cc2)cccc1C(=O)C1CCN(CCc2ccc(F)cc2)CC1

>  <IC50>
300 nM

$$$$

Continue with the next compound.
Ask | Which IC50 is listed for COc1c(OCCOCCOCCOc2ccc(C3CCN(c4ccn5c(CC6CC6)nnc5c4Cl)CC3)cc2)cccc1C(=O)C1CCN(CCc2ccc(F)cc2)CC1 ?
Reply | 1200 nM
